Recorded values, source patent EP0367974A1.

# System: L1210-Leukämiezellen
# PROTOCOL_SUMMARY: Colony formation of L1210 leukaemia cells in soft agar
# Type: cell-based, Maus
# TEST_CONDITIONS: colony number vs untreated control, 7 days at 37° C; 1 h incubation or continuous exposure not specified
PROPERTY_NAME: IC₅₀ (µg/mL)

In [3]: df
Out[3]:
                                   compound  measurement
0      CCC(CN)(CN)COC.CCC1(C)[O][Pt][O]C1=O          2.9
1           CCC(CN)(CN)COC.O=C1C[O][Pt][O]1          1.2
2  COCC(C)(CN)CN.O=C([O-])C1(C(=O)[O-])CC1.[Pt+2]          4.2
3  CCC(CN)(CN)COC.O=C1[O][Pt][O]C(=O)C12CC2          5.0
4  N.N.[Cl][Pt][Cl] [Cisplatin, reference compound]         0.04
5    CCC(CN)(CN)COC.COC1C(=O)[O][Pt][O]C1=O         2.35
6            COCC(C)(CN)CN.O=C1C[O][Pt][O]1          1.8
